tested on: MS2 coat protein; assay: apparent KD of MS2 coat protein, switch ON state; designed switch direction (-1 OFF switch, 1 ON switch): -1; higher = weaker reporter binding; conditions: FMN input: 0 or 200 uM; Eterna round: R93 (includes R88 designs)
Reported apparent KD of MS2 coat protein values follow for various sequences
# answer = value followed by unit

Sample answers from the record:
{"Residue string": "CUCUUGUGAGGAUAUCCAUGAAAUGAAGUGAAAGAAAAGAAGGAGAAGGCACAUGAGGAUCACCCAUGUUAGAA [EteRNA is fun!]", "apparent KD of MS2 coat protein": "49.6 nM"}
{"Residue string": "AGUUGGCGAGGAUAUACAUGAGGAUCACCCAUGUGAAAUCGAGAAAAAAUAGGGAAAAGUAGAAGGCGCUGACA [Ruby 62]", "apparent KD of MS2 coat protein": "22.5 nM"}

Ask: Query the reported apparent KD of MS2 coat protein for MS2 coat protein; item: AAGAAGUGAGGAUAUGGAAAAGAAAAGAAAAGAAAAGAAAACCAGAAGGCACAUGAGGAUCACCCAUGUAAGAA [Artabanus the Hyrcanian]
Result: 29.5 nM

###

system: MS2 coat protein; test: apparent KD of MS2 coat protein, switch OFF state (with FMN for OFF switches, without FMN for ON switches); designed switch direction (-1 OFF switch, 1 ON switch): -1; higher = weaker reporter binding; conditions: FMN input: 0 or 200 uM; Eterna round: R93 (includes R88 designs)
Measurement type: apparent KD of MS2 coat protein
# answer = value followed by unit

Ask: # apparent KD of MS2 coat protein lookup, item CUCUUGUGAGGAUAUCCAUGAAAUGAAGUGAAAGAAAAGAAGGAGAAGGCACAUGAGGAUCACCCAUGUUAGAA [EteRNA is fun!]
Result: 24.3 nM

Ask: # apparent KD of MS2 coat protein lookup, item AAGAAACAUGAGGAUCACCCAUGUGAGGAUAUGAAAAAGAAAAGAAAAGAAAGAAGAAUCAGAAGGCACAAAGG [Nebkaure Khety II]
Result: 1850 nM

###

tested on: MS2 coat protein; experiment: apparent KD of MS2 coat protein; designed switch direction (-1 OFF switch, 1 ON switch): -1; higher = weaker reporter binding; conditions: input ligand: FMN 200 uM
Measurement type: apparent KD of MS2 coat protein (nM)
API: value field is a number in nM; no unit string.

{"Residue string": "AGCUAGUCAGGAUAUUCUAUUAAUUACAUGAGGAUCACCCAUGUGAAUGGACGAGGGUGUGAAGAAGGGACUAGCG [Omei Ex5 A17] (Eterna round: R97, puzzle: Exclusion 5)", "Quantitative readout": 94.4}
{"Residue string": "ACUGGUCGAGGAUAUACGAUCGUGCUUCGGCACGUAAGAUCACAUGAGGAUCACCCAUGUAGAAGGCGACCAGU [Mod 4 - Jieux - Exclusion 2] (Eterna round: R97, puzzle: Exclusion 2)", "Quantitative readout": 246}

Ask: # apparent KD of MS2 coat protein lookup, item GAGUAGUAAGGAUAUGUCUCUGGUGGCUACGGUCACUAGAGGCAGAAGGUACAUGAGGAUCACCCAUGUUUCUC [ExDelusion 9 - Jieux - Exclusion 4] (Eterna round: R97, puzzle: Exclusion 4)
Result: 83.1

Ask: # apparent KD of MS2 coat protein lookup, item ACAUGUCAUCGAGGAUAUUGGACACAUGAGGAUCACCCAUGUACCCGGAGGCUCUACUAUGAGUUCGAGAAGGCGAUGUACAUG [Ex NG2 #74] (Eterna round: R96, puzzle: Exclusion NG 2)
Result: 169

Ask: # apparent KD of MS2 coat protein lookup, item CUUUUGUGAGGAUAUUGGUAGUAAAUAAAUAAAAUUAUUACCGAGAAGGUACAUGAGGAUCACCCAUGUUCCUC [Salish 062 v18] (Eterna round: R97, puzzle: Exclusion 4)
Result: 32.1

###

tested on: MS2 coat protein; assay: apparent KD of MS2 coat protein; designed switch direction (-1 OFF switch, 1 ON switch): -1; higher = weaker reporter binding; conditions: Eterna round: R95; input ligand: FMN 200 uM
Reported apparent KD of MS2 coat protein values follow for various sequences
API: value field is a number in nM; no unit string.

Sample answers from the record:
{"Residue string": "GAAAAGGUAGGAUAUACGAAAAAAAAGGGUAGAAAAAAAACACAUGAGGAUCACCCAUGUAGAAGGACCAGAAG [salish99_ex2_r3_038] (puzzle: Exclusion 2)", "Measurement type": "apparent KD of MS2 coat protein", "Quantitative readout": 72.8}
{"Residue string": "AGUACUAACACGAUAGUGUUAGUACUAUAAGCUUGUGUUACAUGAGGAUCACCCAUGUCCUCAUAAGCUCGUCUUAG [Mat - Sensor v3 - Turn-off var 2 - D66] (puzzle: Sensor v3, turn-off variant 2)", "Measurement type": "apparent KD of MS2 coat protein", "Quantitative readout": 39.8}
{"Residue string": "UAUACUAGAUAGGAUAUACUAUAUAUAUUUUUCGUAGAAGGAUCUACAUGAGGAUCACCCAUGUUAACAGCAGU [JR_E6_Sub007] (puzzle: Exclusion 6)", "Measurement type": "apparent KD of MS2 coat protein", "Quantitative readout": 45}

Ask: # apparent KD of MS2 coat protein lookup, item UUUAAUUUUUUUUUUUUACAAGCUUUUUGCUCGUCUUAUACAUGAGGAUCACCCAUGUAGGUGAGGGAUAAAUUAUC [JMF 43] (puzzle: Sensor v3, turn-off variant 2)
Result: 29.1

Ask: # apparent KD of MS2 coat protein lookup, item UUGAAGAUAGGAUAUACGAGGAGAGGAGAGAGAAGGUGAGGACAUGAGGAUCACCCAUGUAGAAGGAUCAGGAG [JR_Exclu2_Sub066] (puzzle: Exclusion 2)
Result: 66.1

Ask: # apparent KD of MS2 coat protein lookup, item AAUAGCAAGUAAGAUCCUAACAUGAGGAUCACCCAUGUGCUCGUCUUAUAAAGUACUAUCACGAAAGUGAUAGUACA [Sensor 3, v1 - 47] (puzzle: Sensor v3, turn-off variant 1)
Result: 64.8

Ask: # apparent KD of MS2 coat protein lookup, item CUGAGCAGACGGAGAUCCAACAUGAGGAUCACCCAUGUCUCAAAAGCUUUUUGCUCGUCUUAUUCUCCUCUGUUCUC [Ainre] (puzzle: Sensor v3, turn-off variant 1)
Result: 14.3

Ask: # apparent KD of MS2 coat protein lookup, item CUCUUGUCAGGAUAUCAACGCCGCCCACACAGGCGGCGAAAUGAGAAGGGACAUGAGGAUCACCCAUGUUAAAA [Tiaonbi] (puzzle: Exclusion 4)
Result: 24.3

Ask: # apparent KD of MS2 coat protein lookup, item GACUAAAUUUUGUUUGGUUACAUGAGGAUCACCCAUGUUGGUCUAAGAACAUGUCUUUUGUACGCUUGUCUUAUAUA [JR_SV3TOV1_Sub068] (puzzle: Sensor v3, turn-off variant 1)
Result: 76.6

Ask: # apparent KD of MS2 coat protein lookup, item GAUAAGGUAGGAUAUACGAAUAAAAAGGGUAGAAGAAGAACACAUGAGGAUCACCCAUGUAGAAGGACCAAGAG [Mat - Exclusion 2 - Mod of my Tesla design - D23] (puzzle: Exclusion 2)
Result: 43

Ask: # apparent KD of MS2 coat protein lookup, item AGUACUAACACGACAGUGUUAGUACAAUAAGCUUGUGAAACAUGAGGAUCACCCAUGUCCUCAUAAGCUCGUCUUAU [salish99_TOv2_r3_031] (puzzle: Sensor v3, turn-off variant 2)
Result: 18.8

Ask: # apparent KD of MS2 coat protein lookup, item AGUAGUUGUUUCCGUUCUUACAUGAGGAUCACCCAUGUUUCUUGUCGUGCUCGCGUUGCUCGUCAGACUACCUGUUG [salish99_TOv1_r3_062] (puzzle: Sensor v3, turn-off variant 1)
Result: 69.8

Ask: # apparent KD of MS2 coat protein lookup, item CGGGCAUGAGGAUAUCGAGGUUAGUACAUGAGGAUCACCCAUGUUAUCCAGGUGUCGGUUCGAGAAGGCAUGGCCG [LRO-Ex5-11] (puzzle: Exclusion 5)
Result: 464

Ask: # apparent KD of MS2 coat protein lookup, item AAGAAUGAAGGAUAUACAUGAGGAUCACCCAUGUAAAAAAAAUUUUUUAGUUUUUCAUGUAGAAGGUCAAGAAG [JR_Exclusion3_Sub001] (puzzle: Exclusion 3)
Result: 47.9

Ask: # apparent KD of MS2 coat protein lookup, item UAAAAGGUAGGAUAUACGAAAAAAAAGGGUAGAAAAAAAACACAUGAGGAUCACCCAUGUAGAAGGACCAAAAC [salish99_ex2_r3_047] (puzzle: Exclusion 2)
Result: 103

Ask: # apparent KD of MS2 coat protein lookup, item UUUAAUUUUUUUUUUUUACAAGCUUUUUGCUCGUCUUAUACAUGAGGAUCACCCAUGUAGAUGGGAAGUAAAUUAUC [JMF 53] (puzzle: Sensor v3, turn-off variant 2)
Result: 24.7

Ask: # apparent KD of MS2 coat protein lookup, item GUAUAACUACACGGGCUCAACAUGAGGAUCACCCAUGUCAUAUACGCAAGCUUUUUGCUUGUCUUACCUGUCCGUGA [Ariedbi] (puzzle: Sensor v3, turn-off variant 1)
Result: 11.5

Ask: # apparent KD of MS2 coat protein lookup, item AAGUACCGUCACGAUAGUGAUGGUACAACAAGCAAGUGUACAUGAGGAUCACCCAUGUCCUCUUUUGCUCGUCUUAU [Sensor 3 - 95] (puzzle: Sensor v3, turn-off variant 2)
Result: 19.7

Ask: # apparent KD of MS2 coat protein lookup, item AGUACUGGCGCGUCGGUGUUGGUACAAUAAGCUUGUGAAACAUGAGGAUCACCCAUGUCCUCAUAAGCUCGUCUUAU [salish99_TOv2_r2_083] (puzzle: Sensor v3, turn-off variant 2)
Result: 16.9

Ask: # apparent KD of MS2 coat protein lookup, item GAUGUGGGUUUCCGGAGUAACAUGAGGAUCACCCAUGUAGAAGUUGGAGGGAUCAAGCUUUUUGGUCGUCAUAUGUG [JR_SV3TOV1_Sub052] (puzzle: Sensor v3, turn-off variant 1)
Result: 288
